Cited source: ChEMBL document CHEMBL3351348

Assay: Inhibition of HIV Protease using Abz-Thr-Ile-Nle-Phe(NO2)-Gln-Arg as fluorogenic substrate by fluorimetry
Set-up: species or system Human immunodeficiency virus
Settings: read-out: IC50
Measured IC50, listed per entry.
Recorded Endpoint: IC50 (µM)

> print(dat)
                            compound.string  measured.number
1  COc1ccc(S(=O)(=O)N(CC(C)C)C[C@@H](O)COC(=O)Nc2ccc3[nH]ccc3c2)cc1OC             1400
2  COc1ccc(S(=O)(=O)N(CC(C)C)C[C@@H](O)CNc2ccc3[nH]ccc3c2)cc1OC             4400
3  COc1ccc(S(=O)(=O)N(CC(C)C)C[C@@H](O)COC(=O)Nc2ccc3[nH]ccc3c2)cc1                8
4  COc1ccc(S(=O)(=O)N(CC(C)C)C[C@@H](O)COC(=O)Nc2cccc3[nH]ccc23)cc1OC              615
5  CC(C)CN(C[C@@H](O)COc1ccc2cc[nH]c2c1)S(=O)(=O)c1ccc([N+](=O)[O-])cc1               46
6  CC(C)(C)NC(=O)[C@@H]1C[C@@H]2CCCC[C@@H]2CN1C[C@@H](O)COc1ccc2cc[nH]c2c1              138
